Reported values of CC50 at 24 h for individual entries
Test: in vitro
Conditions: rat, gh3-tre-luc cells, AC50 (uM) modified / 1000
Where a name gives a salt, the structure may show the parent alone. Positions of bridges follow the written chain, without caps; N, C: chain ends. Residues, ends and D or L forms follow the SMILES beside them.
METRIC: CC50 at 24 h

| COMPOUND | RESULT |
| --- | --- |
| C=COCCOCCOC=C [{2-[2-(Ethenyloxy)ethoxy]ethoxy}ethene] | > 90 µM |
| CCN(CC)CCNC(=O)COc1ccc(OC)cc1 [Mefexamide hydrochloride] | > 50 µM |
| CCOc1cc(C=O)ccc1O [3-Ethoxy-4-hydroxybenzaldehyde] | > 50 µM |
| CC(C)c1ccc(O)c(C(C)C)c1 | > 90 µM |
| CC/C=C\CCO [(Z)-3-Hexen-1-ol] | > 90 µM |
| N[C@@H](CSCC(=O)O)C(=O)O | > 50 µM |
| OC[C@@H](O)C(O)[C@@H](O)CO (some centres unmarked) | > 90 µM |
| NCCCC[C@H](NC(=O)[C@@H]1CCCN1C(=O)[C@@H]1CSSC[C@H](NC(=O)CNC(=O)CNC(=O)CN)C(=O)N[C@@H](Cc2ccc(O)cc2)C(=O)N[C@@H](Cc2ccccc2)C(=O)N[C@@H](CCC(N)=O)C(=O)N[C@@H](CC(N)=O)C(=O)N1)C(=O)NCC(N)=O [Terlipressin] (H-GGGCYFQNCPKG-NH2; disulfide 4-9) | > 50 µM |

All values here come from paper PMC6792352.
